Assign MIC of Imipenem in combination with BLI to each entry below.
Test system: K. pneumoniae NCTC 13438 (KPC3)
TEST DETAILS: Synergistic broth micro-dilution MIC
Type: cell-based, Klebsiella pneumoniae
EXPERIMENTAL CONTEXT: BLI at 4 μg/mL
Note: unit µg/mL is implicit; provide only the numeric part.

Q) Which MIC of Imipenem in combination with BLI is listed for C[C@]1(Cn2ccnn2)[C@H](C(=O)O)N2C(=O)C[C@H]2S1(=O)=O [Tazobactam] ?
A) 64

Q) Which MIC of Imipenem in combination with BLI is listed for C[n+]1ccn(C[C@@]2(C)[C@H](C(=O)[O-])N3C(=O)C[C@H]3S2(=O)=O)n1 [Compound-1] ?
A) 32

Q) Which MIC of Imipenem in combination with BLI is listed for C[C@]1(Cn2ccnc2)[C@H](C(=O)O)N2C(=O)C[C@H]2S1(=O)=O [Compound-M] ?
A) 64

Q) Which MIC of Imipenem in combination with BLI is listed for C[n+]1ccn(C[C@@]2(C)[C@H](C(=O)[O-])N3C(=O)C[C@H]3S2(=O)=O)c1 [Compound-12] ?
A) 64
